- Test system: CRL-7250
- run.description: Cytotoxic Profiling of Annotated Libraries Using Quantitative High-Throughput Screening (AID 1296008); note: nearly all actives have a fitted effect of over 60% in size
- test.settings: Five cell lines viability, CellTiter-Glo ATP luminescence, 48-72 h
Records with an inconclusive call do not appear. The source made the active and inactive calls. Calls come from the whole dose curve; as a rule, active = well fitted inhibition curve with a large enough effect; inconclusive = small, poorly fitted or top-dose-only effect; inactive = flat fitted curve, though single readings scatter.
Labels: active, inactive

INSERT INTO results (compound, class) VALUES
  ('C[C@]12CC[C@H](O)C[C@@]1(O)CC[C@@H]1[C@@H]2CC[C@]2(C)[C@@H](c3ccc(=O)oc3)CC[C@]12O', 'active'),
  ('COc1cc(C(=O)N2CC[C@@H](O)[C@@H](N)C2)cc2nc(-c3cc4ccccc4n3CC3CC3)n(C)c12', 'active'),
  ('CC[C@H]1C[C@@H]2CC[C@@H](O2)[C@@H](C)C(=O)O[C@H](CC)C[C@H]2CC[C@H](O2)[C@H](C)C(=O)O[C@@H](C)C[C@@H]2CC[C@@H](O2)[C@@H](C)C(=O)O[C@H](CC)C[C@H]2CC[C@H](O2)[C@H](C)C(=O)O1', 'active'),
  ('C[C@]12CC[C@H](O)C[C@H]1CC[C@@H]1[C@@H]2[C@H](O)C(=O)[C@]2(C)[C@@H](c3ccc(=O)oc3)CC[C@]12O', 'active'),
  ('C=C(C)[C@@H]1[C@H]2OC(=O)[C@H]1[C@]1(O)C[C@H]3O[C@]34C(=O)O[C@H]2[C@]14C', 'inactive'),
  ('C[C@H]1CCC[C@H](O)CCC/C=C/c2cc(O)cc(O)c2C(=O)O1', 'inactive'),
  ('CC(=O)O[C@@H]1[C@@H](O)[C@H]2O[C@@H]3C=C(C)[C@@H](O)C[C@]3(CO)[C@]1(C)[C@]21CO1', 'active'),
  ('C=C1[C@@H](C)C2[C@H](Cc3ccccc3)NC(=O)[C@@]23C(/C=C/C[C@H](C)C[C@@](C)(O)/C=C/[C@@H]3OC(C)=O)[C@@H]1O (some centres undefined)', 'active'),
  ('N#CC(O[C@@H]1O[C@H](CO)[C@@H](O)[C@H](O)[C@H]1O)c1ccccc1 (some centres undefined)', 'inactive'),
  ('COc1ccc2[nH]c(-c3ccccc3)c(CCN(C)C)c2c1', 'inactive'),
  ('C[C@H]1O[C@@H](O[C@H]2CC[C@]3(CO)C4CC[C@]5(C)[C@@H](C6=CC(=O)OC6)CC[C@]5(O)[C@@H]4CC[C@H]3C2)[C@H](O)[C@H](O)[C@@H]1O[C@@H]1O[C@H](CO)[C@@H](O)[C@H](O)[C@H]1O (some centres undefined)', 'active'),
  ('CC(=O)OC[C@]12C[C@H](OC(=O)CC(C)C)C(C)=C[C@H]1O[C@@H]1[C@H](O)[C@@H](O)[C@@]2(C)[C@]12CO2', 'active'),
  ('CC[C@H](C)[C@H](NC(=O)[C@H]1CCCCN1C)C(=O)N(COC(=O)CC(C)C)[C@H](C[C@@H](OC(C)=O)c1nc(C(=O)N[C@@H](Cc2ccc(O)cc2)C[C@H](C)C(=O)O)cs1)C(C)C', 'active'),
  ('C[C@]12CC[C@H](O)C[C@@H]1CC[C@@H]1[C@@H]2CC[C@]2(C)[C@@H](C3=CC(=O)OC3)CC[C@]12O', 'active'),
  ('N#Cc1cn([C@@H]2O[C@H](CO)[C@H](O)[C@@H]2O)c2ncnc(N)c12', 'active'),
  ('Cc1sc2c(c1C)C(c1ccc(Cl)cc1)=N[C@@H](CC(N)=O)c1nnc(C)n1-2', 'active'),
  ('C[C@]12CC[C@@H](O[C@@H]3O[C@H](CO)[C@@H](O)[C@H](O)[C@H]3O)C[C@@]1(O)CCC1C2CC[C@]2(C)[C@@H](C3=CC(=O)OC3)CC[C@]12O (some centres undefined)', 'active'),
  ('C[C@H]1CCC/C=C/C2C[C@H](O)C[C@H]2[C@H](O)/C=C/C(=O)O1 (some centres undefined)', 'active'),
  ('CN[C@@H]1C[C@H]2O[C@@](C)([C@@H]1OC)n1c3ccccc3c3c4c(c5c6ccccc6n2c5c31)C(=O)NC4', 'active'),
  ('CCOC(=O)Nc1ccc(NCc2c(C)cc(C)cc2C)cc1N', 'inactive'),
  ('C/C=C(\C)C(O)C(C)/C=C(C)/C=C/C/C(C)=C/Cc1nc(OC)c(OC)c(O[C@@H]2O[C@@H](C)[C@H](O)[C@@H](O)[C@H]2O)c1C (some centres undefined)', 'active'),
  ('CC[C@@H]1C[C@H]2CC[C@H](O2)[C@H](C)C(=O)O[C@@H](C)C[C@@H]2CC[C@@H](O2)[C@@H](C)C(=O)O[C@H](C)C[C@H]2CC[C@H](O2)[C@H](C)C(=O)O[C@@H](C)C[C@@H]2CC[C@@H](O2)[C@@H](C)C(=O)O1', 'active'),
  ('Fc1cc(F)c2c(c1)C1C=CCC1C(c1cccnc1)N2 (centres undefined)', 'active'),
  ('C[C@H]1C/C=C/[C@H]2[C@@H]3O[C@]3(C)[C@@H](C)[C@H]3[C@H](Cc4ccccc4)NC(=O)[C@]32OC(=O)O/C=C/[C@@](C)(O)C1=O', 'active'),
  ('C/C=C(\C)C(=O)O[C@H]1CC2C(=C1C)[C@H]1OC(=O)[C@](C)(O)[C@]1(O)[C@H](OC(=O)CCC)C[C@@]2(C)OC(C)=O (some centres undefined)', 'active'),
  ('CN(C(=O)C(c1ccccc1)c1ccccc1)[C@H](CN1CC[C@H](O)C1)c1ccccc1', 'inactive'),
  ('C[C@]12CC[C@H](O)CC1=CC[C@@H]1C2CC[C@]2(C)[C@@H](C3=CC(=O)OC3)CC[C@]12O (some centres undefined)', 'active'),
  ('O=C1CN=C(c2cccc(Br)c2)c2oc3ccccc3c2N1', 'inactive'),
  ('CN1C(=O)N(c2ccc(C#N)c(C(F)(F)F)c2)C(=O)[C@@]1(CO)c1ccccc1', 'inactive');

====

- Tested on: NIH3T3
- run.description: Cytotoxic Profiling of Annotated Libraries Using Quantitative High-Throughput Screening (AID 1296008); note: nearly all actives have a fitted effect of over 60% in size; for max response: % is set by controls: 0 for no effect and ±100 for the full control effect
- test.settings: Five cell lines viability, CellTiter-Glo ATP luminescence, 48-72 h; active compounds read low
Results filed as inconclusive are left out. The source made the active and inactive calls. Calls follow the shape of the dose curve; as a rule, active = well fitted inhibition curve with a large enough effect; inconclusive = small, poorly fitted or top-dose-only effect; inactive = flat fitted curve, though single readings scatter.
Overview of recorded max response for various molecules
property.label: max response

INSERT INTO measurements (molecule, tested_system, property_label, recorded_value) VALUES
  ('CN1C(=O)C(Cc2ccc3ccccc3c2)N=C(c2ccc(O)cc2)c2cc(Cl)ccc21 (centres undefined)', 'NIH3T3', 'max response', '-0.878% (inactive)'),
  ('C[C@]12CCC(=O)C=C1CC[C@@H]1[C@@H]2[C@@H](O)C[C@]2(C)C(=O)CC[C@@H]12', 'NIH3T3', 'max response', '2.17% (inactive)'),
  ('CN1C(=O)N(c2ccc(C#N)c(C(F)(F)F)c2)C(=O)[C@@]1(CO)c1ccccc1', 'NIH3T3', 'max response', '4.41% (inactive)'),
  ('COC1CC(O[C@H]2CC[C@@]3(C)C(CCC4C3CC[C@]3(C)C(C5=CC(=O)OC5)CCC43O)C2)OC(C)C1OC1OC(COC2OC(CO)C(O)C(O)C2O)C(O)C(O)C1O (some centres undefined)', 'NIH3T3', 'max response', '2.72% (inactive)');

====

- Test system: SKOV3
- run.description: Primary qHTS to identify gynecologic anti-cancer compounds using libraries of approved drugs and bioactive compounds (AID 1345084); note: nearly all actives have a fitted effect of over 55% in size
- test.settings: Gynecologic cancer cell panel viability, ATPlite luminescence, 48 h; series mostly up to 57.5 µM
Inconclusive results are not listed. The source made the active and inactive calls. Calls come from the whole dose curve; as a rule, active = well fitted cell-killing curve with a large enough effect; inconclusive = small, poorly fitted or top-dose-only effect, or effect the other way; inactive = flat fitted curve, though single readings scatter.
Outcome codes: YES = active, NO = inactive

INSERT INTO results (compound, class) VALUES
  ('C=C1[C@@H](O)[C@]2(O)OC[C@]34C2[C@]2(C)C(C[C@H]3OC(=O)[C@H](O)[C@@]14O)C(C)=CC(=O)[C@H]2O (stereo not given in full)', 'NO'),
  ('C[C@@H]1O[C@@H](OC2CCC3(C=O)C(CCC4C3CCC3(C)C(C5=CC(=O)OC5)C(O)CC43O)C2)[C@H](O)[C@H](O)[C@H]1O[C@@H]1O[C@H](CO)[C@@H](O)[C@H](O)[C@H]1O (stereo not given in full)', 'YES'),
  ('C=CC/C=C\C/C=C\CCCCCCCc1cc(O)cc(O)c1', 'NO'),
  ('CN1C[C@@H]2CN(c3ccc(-c4ccccc4)nn3)C[C@@H]2C1', 'NO'),
  ('CCCN(CCC)CCc1ccc(OC)c(OCCc2ccccc2)c1', 'NO'),
  ('NCCCCCNC1(c2ccccc2)CCCCC1', 'NO'),
  ('CC(C)(C)[C@]1(O)C[C@@H]2OC(=O)C[C@@]23C(=O)O[C@@H]2OC(=O)[C@@H](O)[C@]213', 'NO'),
  ('C[C@]12CC[C@H](O[C@@H]3O[C@H](CO)[C@@H](O)[C@H](O)[C@H]3O)CC1CC[C@@H]1C2CC[C@]2(C)[C@@H](C3=CC(=O)OC3)CC[C@]12O (stereo not given in full)', 'YES'),
  ('Cc1sc2c(c1C)C(c1ccc(Cl)cc1)=N[C@@H](CC(=O)Nc1ccc(O)cc1)c1nnc(C)n1-2', 'YES'),
  ('CN1C(=O)[C@]23CC4C(C)(C)[C@@]5(C[C@@]41CN2CC[C@@]3(C)O)C(=O)Nc1c5ccc2c1OC=CC(C)(C)O2 (stereo not given in full)', 'NO'),
  ('C/C=C(\C)C(O)C(C)/C=C(C)/C=C/C/C(C)=C/Cc1nc(OC)c(OC)c(O[C@@H]2O[C@@H](C)[C@H](O)[C@@H](O)[C@H]2O)c1C (stereo not given in full)', 'YES'),
  ('O=C(NCCN1CCC2(CC1)C(=O)NCN2c1cccc(F)c1)c1ccc(F)c(F)c1', 'NO'),
  ('C/C=C1/CN2CC[C@]34C(=Nc5ccccc53)[C@@H]2C[C@@H]1[C@H]4C(=O)OC', 'NO'),
  ('C/C=C(/C)C1C=CC2CC(C)CC(C)C2C1/C(O)=C1\C(=O)NC(CC(C)(O)C(=O)O)C1=O (stereo not given)', 'NO'),
  ('C#CCO[C@H]1CN2CCC1CC2', 'NO'),
  ('OCc1nnc2n1-c1ccc(Cl)cc1C(c1ccccc1Cl)=NC2', 'NO'),
  ('CCC1(O)CCC2C3CCC4=CC(=O)CCC4C3CCC21CC (stereo not given)', 'NO'),
  ('CO[C@@H]1C[C@H](O[C@H]2CC[C@@]3(C)C(CCC4C3CC[C@]3(C)[C@@H](C5=CC(=O)OC5)[C@@H](OC(C)=O)CC43O)C2)O[C@H](C)[C@@H]1O[C@H]1O[C@H](CO[C@@H]2O[C@H](CO)[C@@H](O)[C@H](O)[C@H]2O)[C@@H](O)[C@H](O)[C@H]1O (stereo not given in full)', 'YES'),
  ('COc1ccc(CCNCc2ccc(OC)c3ccccc23)cc1', 'NO'),
  ('C#CC1(O)CCC2C3CCC4=CC(=O)CCC4=C3C=CC21C (stereo not given)', 'NO'),
  ('CCOc1ccc(Oc2ccc(OCc3cc(F)ccc3F)cc2)c(N)c1', 'NO'),
  ('C=C(C)[C@@H]1[C@H]2OC(=O)[C@H]1[C@]1(O)C[C@H]3O[C@]34C(=O)O[C@H]2[C@]14C', 'NO'),
  ('CC(C)OC(=O)c1ccnc2cc(C(OCCN3CCCCC3)c3ccccc3Cl)sc12 (stereo not given)', 'NO'),
  ('c1ccc([C@@H]2C[C@H]2NC2CCNCC2)cc1', 'NO'),
  ('OC(CNc1ccccc1)Cn1c2ccc(Br)cc2c2cc(Br)ccc21 (stereo not given)', 'NO'),
  ('C=C1[C@@H](C)[C@H]2[C@H](Cc3ccccc3)NC(=O)[C@]23OC(=O)/C=C/C(=O)CCC[C@@H](C)C/C=C/[C@H]3[C@@H]1O', 'YES'),
  ('C[C@H]1C/C=C/[C@H]2[C@@H]3O[C@]3(C)[C@@H](C)[C@H]3[C@H](Cc4ccccc4)NC(=O)[C@]32OC(=O)O/C=C/[C@@](C)(O)C1=O', 'YES'),
  ('N#Cc1ccc(N2CCN(C(=O)COc3ccc4[nH]cc(CCN)c4c3)CC2)cc1', 'NO'),
  ('CCC1C2CC3C4N(C)c5ccccc5C45CC(C2C5O)N3C1O (stereo not given)', 'NO'),
  ('CC(C)[C@H](NC(=O)c1nn(Cc2ccc(F)cc2)c2ccccc12)C(N)=O', 'NO'),
  ('COc1ccc(C23CCC(=O)C=C2N(C)CC3)cc1OC (stereo not given)', 'YES'),
  ('COc1ccc2[nH]c(-c3ccccc3)c(CCN(C)C)c2c1', 'NO'),
  ('C/C=C1/CN2CC[C@]34C(=Nc5ccc(OC)cc53)C2C[C@@H]1C4(CO)C(=O)OC (stereo not given in full)', 'NO'),
  ('CN1CCc2cc3c(cc2C1C1OC(=O)c2c1ccc1c2OCO1)OCO3 (stereo not given)', 'NO'),
  ('COc1cccc(NCC(F)Cn2c3ccc(Br)cc3c3cc(Br)ccc32)c1 (stereo not given)', 'YES');

Origin of measurements: PubChem BioAssay (NCATS)
